# system-under-test: SARS-CoV-2 3CLpro (Severe acute respiratory syndrome coronavirus 2, UniProt P0DTD1)
# experimental-protocol: biochemical
# Format: biochemical
# condition-info: 4 h, read-out: mean
Counter-ions that a name gives are not always drawn.
measure-name: inhibition at 5 µM (%)
Give the value, in units of %, as a plain number.

Dear colleague, I am looking for the recorded inhibition at 5 µM of the following molecule: CN(C)CCCN1c2ccccc2Sc2ccc(Cl)cc21 [Chlorpromazine hydrochloride]
0.584

Consider the molecule O=C(O)[C@@H]1[C@H](C(=O)O)[C@H]2CC[C@@H]1O2 [Endothall] and give its measured inhibition at 5 µM.
1.31

Can you share its inhibition at 5 µM? I mean this molecule: CCCCc1oc2ccccc2c1C(=O)c1cc(I)c(OCCN(CC)CC)c(I)c1 [Amiodarone hydrochloride]
3.06

Param item = Oc1ccc2c3c1O[C@H]1c4[nH]c5ccccc5c4C[C@@]4(O)[C@@H](C2)N(CC2CC2)CC[C@]314 [Naltrindole hydrochloride] ; retrieve measured inhibition at 5 µM.
3.06

Given the entry "Nc1nc2ccc(Cl)cc2c2nc(-c3ccco3)nn12" , report its measured inhibition at 5 µM.
3.56

Reported inhibition at 5 µM for "C[C@]12CCC(=O)C=C1CC[C@@H]1[C@@H]2CC[C@]2(C)C(=O)CC[C@@H]12" : what is it?
1.21

For the molecule shown here, C=CCN1CC[C@]23c4c5ccc(O)c4O[C@H]2/C(=N/NC(=O)c2ccccc2)CC[C@@]3(O)[C@H]1C5 [Naloxone benzoylhydrazone] , give the reported inhibition at 5 µM.
3.9

Name the recorded inhibition at 5 µM for "C[C@]12CC[C@@H](O)C[C@@H]1CC[C@@H]1[C@@H]2CC[C@]2(C)C(=O)CC[C@@H]12" .
2.38
